In this section we review reported Times that of the initial medium values for a set of compounds.
Test: Binary (carrier), ternary and quaternary supramolecular self-assembly systems of polymer, carrier building block and target: guest concentration over incubation time (Examples 1-56)
Assay type: physicochemical
Details: ternary: 102H (0.25% where stated) + 301, carrier % not stated; 6 h

compound	Times that of the initial medium
Cc1cn(-c2cc(NC(=O)c3ccc(C)c(Nc4nccc(-c5cccnc5)n4)c3)cc(C(F)(F)F)c2)cn1 [Nilotinib]	10 times
O=C1[C@H](CC[C@H](O)c2ccc(F)cc2)[C@@H](c2ccc(O)cc2)N1c1ccc(F)cc1 [Ezetimibe]	26 times

Let's switch to this compound now.
Could you tell me which Times that of the initial medium is on file for CC(=O)c1c(C)c2cnc(Nc3ccc(N4CCNCC4)cn3)nc2n(C2CCCC2)c1=O [Palbociclib] ? 4.0 times
